Entries and their measured pKi follow.
Molecular target: human dopamine D2L receptors (long isoform) (Homo sapiens)
Experiment: Dopamine D2L receptor binding, displacement of [125I] iodospiperone
Conditions: membranes of HEK-293 cells stably expressing human D2L; 0.01 nM [125I] iodospiperone; 25° C., 60 minutes; read-out: Ki(D2)*
pKi: −log10 of the molar value.

- smiles.entry: "CCCN1CC(c2ccc(NS(=O)(=O)c3ccc([C@@H](C)CF)cc3)cc2)C1"
  pKi: 5.82
- smiles.entry: "CCCN1CC(c2ccc(NS(=O)(=O)c3ccc(C(C)C)cc3)cn2)C1"
  pKi: 5.74
- smiles.entry: "C=C(C)c1ccc(S(=O)(=O)Nc2ccc([C@@H]3CCN(CCC)C3)cc2)c(F)c1"
  pKi: 7.90
- smiles.entry: "CCCN1CC[C@@H](c2ccc(NS(=O)(=O)c3cc(F)c(Br)cc3F)cc2)C1"
  pKi: 6.76

====

Biological target: human dopamine D3 receptors (Homo sapiens)
Construct: expressed in transfected cells
Sequence (P35462 whole entry): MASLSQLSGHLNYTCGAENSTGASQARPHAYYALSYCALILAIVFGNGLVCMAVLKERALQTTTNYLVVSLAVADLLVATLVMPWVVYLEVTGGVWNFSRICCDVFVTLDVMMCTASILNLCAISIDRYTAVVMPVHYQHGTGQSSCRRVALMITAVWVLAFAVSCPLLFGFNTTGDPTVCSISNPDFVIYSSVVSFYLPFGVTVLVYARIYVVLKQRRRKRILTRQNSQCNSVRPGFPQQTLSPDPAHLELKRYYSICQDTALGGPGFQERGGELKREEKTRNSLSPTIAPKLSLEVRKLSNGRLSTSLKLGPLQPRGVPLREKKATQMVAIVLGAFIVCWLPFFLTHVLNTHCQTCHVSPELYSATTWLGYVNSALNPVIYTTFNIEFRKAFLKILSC
Assay: Dopamine D3 receptor binding, displacement of [125I]-iodosulpride
Conditions: selectivity ratio of the receptor binding constants D2 over D3
Flag rule - Ki(D2)*/Ki(D3)* less than 40 flags satisfied; the remaining entries get not satisfied.

- compound: "CCCN1CC(c2ccc(NS(=O)(=O)c3ccc(CC(F)(F)F)cc3)cc2)C1 [Example 62]"
  class.name: "not satisfied"
- compound: "CCCN1CC[C@@H](c2ccc(NS(=O)(=O)c3ccc(Br)cc3)cc2)C1.Cl [Example 25]"
  class.name: "not satisfied"
- compound: "CCCN1CC(c2ccc(NS(=O)(=O)c3ccc([C@@H](C)CF)cc3)cc2)C1 [Example 59]"
  class.name: "not satisfied"
- compound: "CCCN1CC[C@@H](c2ccc(NS(=O)(=O)c3ccc(Cl)s3)cc2)C1 [Example 105]"
  class.name: "not satisfied"
- compound: "CCCN1CC[C@@H](c2ccc(NS(=O)(=O)c3ccc(C(C)CC)cc3)cc2)C1.Cl (stereo partly shown) [Example 33]"
  class.name: "satisfied"
- compound: "CCCN1CC[C@@H](c2ccccc2NS(=O)(=O)c2ccc(-c3cnco3)cc2)C1 [Example 71]"
  class.name: "satisfied"

====

pKi overview
Target: human dopamine D2L receptors (long isoform) (Homo sapiens, UniProt P14416)
Sequence (P14416 whole entry, canonical isoform): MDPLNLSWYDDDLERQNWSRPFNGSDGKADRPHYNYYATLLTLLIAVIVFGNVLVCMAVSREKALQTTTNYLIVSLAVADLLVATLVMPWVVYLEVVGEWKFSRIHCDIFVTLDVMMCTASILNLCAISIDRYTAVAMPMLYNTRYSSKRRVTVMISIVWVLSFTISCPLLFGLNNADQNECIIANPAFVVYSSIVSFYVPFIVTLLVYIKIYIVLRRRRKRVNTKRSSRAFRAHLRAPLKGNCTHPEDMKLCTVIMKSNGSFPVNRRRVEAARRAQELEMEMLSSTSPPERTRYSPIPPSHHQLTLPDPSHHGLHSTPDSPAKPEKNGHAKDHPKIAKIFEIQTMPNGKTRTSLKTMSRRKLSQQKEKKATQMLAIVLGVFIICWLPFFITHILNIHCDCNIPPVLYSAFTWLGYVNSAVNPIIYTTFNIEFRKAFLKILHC
Assay: Dopamine D2L receptor binding, displacement of [125I] iodospiperone
Conditions: membranes of HEK-293 cells stably expressing human D2L; 0.01 nM [125I] iodospiperone; 25° C., 60 minutes; read-out: Ki(D2)*
pKi: −log10 of the molar value.

- compound: "CCCN1CC(c2ccc(NS(=O)(=O)c3ccc(C(C)C(F)(F)F)cc3)cc2)C1 (stereo not shown)"
  tested.on: "human dopamine D2L receptors (long isoform) (Homo sapiens, UniProt P14416)"
  pKi: 6.19
- compound: "CCCN1CC(c2ccc(NS(=O)(=O)c3ccc(OC(F)(F)F)cc3)cc2)C1"
  tested.on: "human dopamine D2L receptors (long isoform) (Homo sapiens, UniProt P14416)"
  pKi: 5.74
- compound: "C=Cc1ccc(S(=O)(=O)Nc2ccc([C@@H]3CCN(CCC)C3)cc2)cc1"
  tested.on: "human dopamine D2L receptors (long isoform) (Homo sapiens, UniProt P14416)"
  pKi: 7.39
- compound: "CCCN1CC[C@@H](c2ccc(NS(=O)(=O)c3ccc(C(F)(F)F)cc3)cc2)C1.Cl [Example 8, hydrochloride]"
  tested.on: "human dopamine D2L receptors (long isoform) (Homo sapiens, UniProt P14416)"
  pKi: 6.63
- compound: "CCCN1CC[C@@H](c2ccccc2NS(=O)(=O)c2ccc(Br)c(F)c2)C1"
  tested.on: "human dopamine D2L receptors (long isoform) (Homo sapiens, UniProt P14416)"
  pKi: 6.41
- compound: "CCCN1CC[C@@H](c2ccc(NS(=O)(=O)c3ccc(-c4cnco4)s3)cc2)C1"
  tested.on: "human dopamine D2L receptors (long isoform) (Homo sapiens, UniProt P14416)"
  pKi: 6.36
- compound: "CCCN1CCC(c2ccc(NS(=O)(=O)c3ccc(C(C)C)cc3)cc2F)C1.Cl (stereo not shown) [Example 130, hydrochloride]"
  tested.on: "human dopamine D2L receptors (long isoform) (Homo sapiens, UniProt P14416)"
  pKi: 8.07
- compound: "CCCN1CC[C@@H](c2ccc(NS(=O)(=O)c3ccc(CCF)cc3)cc2)C1.Cl [Example 86, hydrochloride]"
  tested.on: "human dopamine D2L receptors (long isoform) (Homo sapiens, UniProt P14416)"
  pKi: 6.92
- compound: "CCCN1CC[C@@H](c2ccc(NS(=O)(=O)c3ccc(C(CF)CF)cc3)cc2)C1"
  tested.on: "human dopamine D2L receptors (long isoform) (Homo sapiens, UniProt P14416)"
  pKi: 7.55
- compound: "CC(C)c1ccc(S(=O)(=O)Nc2ccc(C3CCN(Cc4ccccc4)C3)c(F)c2)cc1 (stereo not shown)"
  tested.on: "human dopamine D2L receptors (long isoform) (Homo sapiens, UniProt P14416)"
  pKi: 7.89
- compound: "CC(C)c1ccc(S(=O)(=O)Nc2ccc([C@@H]3CCN(CCCO)C3)cc2)cc1"
  tested.on: "human dopamine D2L receptors (long isoform) (Homo sapiens, UniProt P14416)"
  pKi: 8.23
- compound: "CCCN1CC[C@@H](c2ccc(NS(=O)(=O)c3ccc(C(C)C(F)F)cc3)cc2)C1 (stereo partly shown)"
  tested.on: "human dopamine D2L receptors (long isoform) (Homo sapiens, UniProt P14416)"
  pKi: 7.30
- compound: "CCCN1CC[C@@H](c2ccc(NS(=O)(=O)c3ccc(CCCF)cc3)cc2)C1"
  tested.on: "human dopamine D2L receptors (long isoform) (Homo sapiens, UniProt P14416)"
  pKi: 7.76
- compound: "CC(C)c1ccc(S(=O)(=O)Nc2ccc([C@@H]3CCNC3)cc2)cc1"
  tested.on: "human dopamine D2L receptors (long isoform) (Homo sapiens, UniProt P14416)"
  pKi: 7.05
- compound: "CCCN1CC(c2ccc(NS(=O)(=O)c3ccc(CCF)cc3)cc2)C1"
  tested.on: "human dopamine D2L receptors (long isoform) (Homo sapiens, UniProt P14416)"
  pKi: 5.57
- compound: "CCCN1CC[C@@H](c2ccc(NS(=O)(=O)c3ccc(C(C)C)cc3)cc2)C1.Cl [Example 1, hydrochloride]"
  tested.on: "human dopamine D2L receptors (long isoform) (Homo sapiens, UniProt P14416)"
  pKi: 8.12

====

// each record: one item and its pKi for human dopamine D3 receptors (Homo sapiens)
pKi: −log10 of the molar value.
measurement.type: pKi

- molecule: "CCCN1CC[C@@H](c2ccc(NS(=O)(=O)c3ccc(F)c(F)c3)cc2)C1.Cl [Example 126, hydrochloride]"
  tested.on: "human dopamine D3 receptors (Homo sapiens)"
  measurement.type: "pKi"
  test.value: 7.47
- molecule: "CCCN1CCC[C@@H](c2ccc(NS(=O)(=O)c3ccc(OC(F)(F)F)cc3)cc2)C1"
  tested.on: "human dopamine D3 receptors (Homo sapiens)"
  measurement.type: "pKi"
  test.value: 8.14
- molecule: "CCCN1CCC(c2ccc(NS(=O)(=O)c3ccc(C(C)C)cc3)c(F)c2)C1.Cl (stereo not shown) [Example 134, hydrochloride]"
  tested.on: "human dopamine D3 receptors (Homo sapiens)"
  measurement.type: "pKi"
  test.value: 9.12
- molecule: "CCCN1CC[C@@H](c2ccc(NS(=O)(=O)c3ccc(CC(C)C)cc3)cc2)C1.Cl [Example 35, hydrochloride]"
  tested.on: "human dopamine D3 receptors (Homo sapiens)"
  measurement.type: "pKi"
  test.value: 9.52
- molecule: "CCCN1CC[C@H](c2ccc(NS(=O)(=O)c3ccc(C(C)C)cc3)cc2)C1.Cl [Example 5, hydrochloride]"
  tested.on: "human dopamine D3 receptors (Homo sapiens)"
  measurement.type: "pKi"
  test.value: 8.54
- molecule: "CCCN1CC[C@@H](c2ccc(NS(=O)(=O)c3ccc(C4CC4)cc3)cc2)C1"
  tested.on: "human dopamine D3 receptors (Homo sapiens)"
  measurement.type: "pKi"
  test.value: 9.64
- molecule: "CCCN1CC[C@@H](c2ccc(NS(=O)(=O)c3ccc4c(c3)CCO4)cc2)C1"
  tested.on: "human dopamine D3 receptors (Homo sapiens)"
  measurement.type: "pKi"
  test.value: 8.47

====

Parameter pKi: see the listing below.
Target: human dopamine D2L receptors (long isoform) (Homo sapiens, UniProt P14416)
Experiment: Dopamine D2L receptor binding, displacement of [125I] iodospiperone
Conditions: membranes of HEK-293 cells stably expressing human D2L; 0.01 nM [125I] iodospiperone; 25° C., 60 minutes; read-out: Ki(D2)*
pKi: −log10 of the molar value.
measurement.type: pKi

- compound: "CCCN1CC[C@@H](c2ccc(NS(=O)(=O)c3ccc(C4CCC4)cc3)cc2)C1"
  tested.on: "human dopamine D2L receptors (long isoform) (Homo sapiens, UniProt P14416)"
  measurement.type: "pKi"
  test.value: 8.06
- compound: "CCCN1CC[C@@H](c2ccc(NS(=O)(=O)c3ccc(C(C)(C)CC)cc3)cc2)C1.Cl [Example 2, hydrochloride]"
  tested.on: "human dopamine D2L receptors (long isoform) (Homo sapiens, UniProt P14416)"
  measurement.type: "pKi"
  test.value: 8.64
- compound: "CCCN1CC[C@@H](c2ccc(NS(=O)(=O)c3ccc([C@@H](C)CF)cc3)cc2)C1"
  tested.on: "human dopamine D2L receptors (long isoform) (Homo sapiens, UniProt P14416)"
  measurement.type: "pKi"
  test.value: 7.83
- compound: "CCCN1CC[C@@H](c2ccc(NS(=O)(=O)c3ccc(Br)c(F)c3)cc2)C1"
  tested.on: "human dopamine D2L receptors (long isoform) (Homo sapiens, UniProt P14416)"
  measurement.type: "pKi"
  test.value: 7.13
- compound: "CCCN1CC(c2ccc(NS(=O)(=O)c3ccc(C(C)C)cc3)cc2)C1"
  tested.on: "human dopamine D2L receptors (long isoform) (Homo sapiens, UniProt P14416)"
  measurement.type: "pKi"
  test.value: 6.86
- compound: "CCCN1CC[C@@H](c2ccc(NS(=O)(=O)c3ccc(OCc4ccccc4)cc3)cc2)C1"
  tested.on: "human dopamine D2L receptors (long isoform) (Homo sapiens, UniProt P14416)"
  measurement.type: "pKi"
  test.value: 6.79
- compound: "CCCN1CC[C@@H](c2ccc(NS(=O)(=O)c3ccc(-c4ccon4)s3)cc2)C1"
  tested.on: "human dopamine D2L receptors (long isoform) (Homo sapiens, UniProt P14416)"
  measurement.type: "pKi"
  test.value: 5.93
- compound: "CCCN1CC[C@@H](c2ccc(NS(=O)(=O)c3ccc(OC(F)F)cc3)cc2)C1.Cl [Example 9, hydrochloride]"
  tested.on: "human dopamine D2L receptors (long isoform) (Homo sapiens, UniProt P14416)"
  measurement.type: "pKi"
  test.value: 6.89
